Each entry below carries its recorded IC50.
- target desc: ALK2 (Homo sapiens (Human))
- Sequence (Q04771 21-509): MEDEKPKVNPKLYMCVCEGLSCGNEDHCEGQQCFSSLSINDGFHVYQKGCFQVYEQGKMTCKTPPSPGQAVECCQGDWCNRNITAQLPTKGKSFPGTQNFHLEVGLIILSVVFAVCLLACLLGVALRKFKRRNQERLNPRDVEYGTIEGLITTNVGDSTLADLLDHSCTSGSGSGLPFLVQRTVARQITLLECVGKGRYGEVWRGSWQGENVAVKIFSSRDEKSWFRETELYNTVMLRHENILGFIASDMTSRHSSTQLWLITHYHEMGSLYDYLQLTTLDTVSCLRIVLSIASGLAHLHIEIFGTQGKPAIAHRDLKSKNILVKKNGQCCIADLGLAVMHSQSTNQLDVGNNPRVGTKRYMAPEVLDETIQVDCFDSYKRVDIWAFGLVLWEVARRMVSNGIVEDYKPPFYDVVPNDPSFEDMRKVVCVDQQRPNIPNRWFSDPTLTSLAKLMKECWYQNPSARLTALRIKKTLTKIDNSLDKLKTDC

Below, 6 compounds whose answers are already recorded.
Query :: Enter reported IC50 observed with ALK2 (Homo sapiens (Human)) for COc1cc(-n2cnc(Nc3nc(N4CCC[C@H]4CO)nc4sc(C(=O)OCC(C)C)cc34)c2)cc(OC)c1OC [Compound 92d]
Result :: 100 to 1000 nM

Query :: For the record COc1cc(-n2cnc(Nc3nc(N4CCC[C@@H]4CO)nc4cc(N5CCC[C@@H]5CO)ccc34)c2)cc(OC)c1OC [Compound 306a] , what value of IC50 is listed for ALK2 (Homo sapiens (Human))?
Result :: < 100 nM

Query :: Any idea what IC50 came out for N#CC1CC(n2cnc(Nc3nc(N4CCC[C@H]4CO)nn4cccc34)c2)C1 (stereo partly shown) [Compound 68a] on ALK2 (Homo sapiens (Human))?
Result :: < 100 nM

Query :: Form field: IC50 recorded for NC(=O)[C@@H]1CCCN1c1nc(Nc2cn(-c3ccc4c(c3)OC(F)(F)O4)cn2)c2ccsc2n1 [Compound 431e] with ALK2 (Homo sapiens (Human)) (enter value)
Result :: > 1000 nM

Query :: Give ALK2 (Homo sapiens (Human)) IC50 for COc1cc(-n2cnc(Nc3nc(N4CCC[C@H]4CO)nn4cccc34)c2)cc(C#N)c1OC [Compound 167f]
Result :: > 1000 nM

Query :: Recall the recorded IC50 for COc1cc(-n2cnc(Nc3nc4c(c(N5CCC[C@H]5CO)n3)CCN(Cc3cccc(OC(F)(F)F)c3)C4)c2)cc(OC)c1OC [Compound 217a] with ALK2 (Homo sapiens (Human)) and state it.
Result :: < 100 nM

Continuing:
Query :: Give recorded IC50 with ALK2 (Homo sapiens (Human)) for the following compound: c1ccc([C@@H]2CCCN2c2nc(Nc3cn(C4CCC4)cn3)c3cccn3n2)nc1 [Compound 64a]
Result :: < 100 nM

* * *

- target desc: UniProt:Q04771
measured parameter: IC50

A selection of reference data follows.
Query :: Tell me reported IC50 for COc1cc(-n2cnc(Nc3nc(N4CCC[C@H]4CO)c4cccc(CN5CCCCC5)c4n3)c2)cc(OC)c1OC [Compound 335d] , tested with UniProt:Q04771.
Result :: < 100 nM

Query :: UniProt:Q04771 / IC50 / COc1cc(F)c(CC(=O)N2CCN(c3nc(Nc4cn(C)cn4)c4cccn4n3)CC2)c(F)c1 [Compound 51a] : value?
Result :: 100 to 1000 nM

Query :: Give UniProt:Q04771 IC50 for COc1cc(-n2cnc(Nc3nc(N4CCC[C@H]4CO)nc4scnc34)c2)cc(OC)c1OC [Compound 164a]
Result :: < 100 nM

Query :: Could you share what IC50 was measured for COc1cc(-n2cnc(Nc3nc(N4CCCC4)c4c(ccn4S(=O)(=O)c4ccc(C)cc4)n3)c2)cc(OC)c1OC [Compound 199b] , tested on UniProt:Q04771?
Result :: > 1000 nM

Next:
Query :: Test system UniProt:Q04771; read-out IC50; what value for COc1cc(-n2cnc(Nc3nc(N4CCC[C@H]4CO)c4c(C)nn(C5CCC5)c4n3)c2)cc(OC)c1OC [Compound 442c] ?
Result :: < 100 nM

* * *

- target desc: ALK2 (Homo sapiens (Human))
measured parameter: IC50

Query :: Request body: readout IC50, system ALK2 (Homo sapiens (Human)), query N#Cc1cc(O)cc(-n2cnc(Nc3nc(N4CCC[C@H]4CO)nn4cccc34)c2)c1 [Compound 127b] . Return the value.
Result :: < 100 nM

Continuing:
Query :: API: value(readout= IC50, system= ALK2 (Homo sapiens (Human)), query= COc1cc(-n2cnc(Nc3nc(N4CCC[C@H]4CO)nc4c3CCN(CCC(N)=O)C4)c2)cc(OC)c1OC [Compound 254a] )
Result :: < 100 nM

Query :: Find IC50 (ALK2 (Homo sapiens (Human))) for the entry COc1cc(-n2cnc(Nc3nc(N4CCC[C@H]4CO)nc4c3CN(C(C)C)C4=O)c2)cc(OC)c1OC [Compound 274c]
Result :: < 100 nM

Query :: Give ALK2 (Homo sapiens (Human)) IC50 for CC(C)(C)CC(=O)N1CCN(c2nc(Nc3cn(-c4ccccc4)cn3)c3ccsc3n2)CC1 [Compound 61b]
Result :: < 100 nM

Query :: What IC50 appears in the records for this molecule with ALK2 (Homo sapiens (Human))? Cn1cnc(Nc2nc(N3CCCC3c3ccncc3)nn3cccc23)c1 (stereo not drawn) [Compound 20a]
Result :: 100 to 1000 nM

Query :: Recall the recorded IC50 for Cn1cnc(-n2cnc(Nc3nc(N4CCCC4c4ccccn4)nn4cccc34)c2)c1 (stereo not drawn) [Compound 81c] with ALK2 (Homo sapiens (Human)) and state it.
Result :: > 1000 nM

Query :: Find IC50 (ALK2 (Homo sapiens (Human))) for the entry COc1cc(-n2cnc(Nc3nc(N4CCC[C@@H]4CO)c4ccc(OC(C)C)cc4n3)c2)cc(OC)c1OC [Compound 278b]
Result :: < 100 nM

Query :: Look up IC50 with ALK2 (Homo sapiens (Human)) for this molecule: COc1ccc(-n2cnc(Nc3nc(N4CCC[C@H]4CO)c4cccn4n3)c2)cc1OC [Compound 243a]
Result :: 100 to 1000 nM

Query :: ALK2 (Homo sapiens (Human)) / IC50 / COc1cc(-n2cnc(Nc3nc(N4CCCC4)nc4c3ccn4S(=O)(=O)c3ccc(C)cc3)c2)cc(OC)c1OC [Compound 163a] : value?
Result :: 100 to 1000 nM

Values from patent US11661426B2
